- Test system: Rattus norvegicus
- assay_method_text: Antiinflammatory activity in Wistar albino rat assessed as inhibition of carrageenan-induced paw edema at 50 mg/kg, po administered 30 mins before carrageenan challenge measured after 30 mins relative to control
- Assay type: functional
In this section, each of the compounds is paired with its reported inhibition in vivo at 50 mg/kg.
Give the quantity in %, number only.

These recorded examples may help you get a feel for the data.
[
  {
    "compound": "Cc1ccc(-c2nn(-c3ccccc3)cc2C2CC(c3ccc(F)cc3)=NN2c2ccc(S(N)(=O)=O)cc2)cc1 (stereo not drawn)",
    "inhibition in vivo at 50 mg/kg (%)": 30
  },
  {
    "compound": "NS(=O)(=O)c1ccc(N2N=C(c3ccc(F)cc3)CC2c2cn(-c3ccccc3)nc2-c2ccc(F)cc2)cc1 (stereo not drawn)",
    "inhibition in vivo at 50 mg/kg (%)": 18
  },
  {
    "compound": "NS(=O)(=O)c1ccc(N2N=C(c3ccc(F)cc3)CC2c2cn(-c3ccccc3)nc2-c2ccccc2)cc1 (stereo not drawn)",
    "inhibition in vivo at 50 mg/kg (%)": 22
  },
  {
    "compound": "NS(=O)(=O)c1ccc(N2N=C(c3ccc(F)cc3)CC2c2cn(-c3ccccc3)nc2-c2ccc(Br)cc2)cc1 (stereo not drawn)",
    "inhibition in vivo at 50 mg/kg (%)": 13
  },
  {
    "compound": "NS(=O)(=O)c1ccc(N2N=C(c3ccccc3)CC2c2cn(-c3ccccc3)nc2-c2ccc(Br)cc2)cc1 (stereo not drawn)",
    "inhibition in vivo at 50 mg/kg (%)": 16
  },
  {
    "compound": "Cc1ccc(C2=NN(c3ccc(S(N)(=O)=O)cc3)C(c3cn(-c4ccccc4)nc3-c3ccc(C)cc3)C2)cc1 (stereo not drawn)",
    "inhibition in vivo at 50 mg/kg (%)": 18
  }
]

Ask | # query: inhibition in vivo at 50 mg/kg | item NS(=O)(=O)c1ccc(N2N=C(c3ccccc3)CC2c2cn(-c3ccccc3)nc2-c2ccccc2)cc1 (stereo not drawn) | system: Rattus norvegicus
Reply | 5

Ask | Enter reported inhibition in vivo at 50 mg/kg observed with Rattus norvegicus for NS(=O)(=O)c1ccc(N2N=C(c3ccc(Br)cc3)CC2c2cn(-c3ccccc3)nc2-c2ccccc2)cc1 (stereo not drawn)
Reply | 7

----------
A collection of molecules and their measured MIC
- Test system: Escherichia coli
- assay_method_text: Antimicrobial activity against Escherichia coli MTCC 51 after 24 hrs by broth microdilution assay
- Format: functional
- experimental_context: MTCC 51, 24 h
Quick reminder: number only, in µg/mL, skip the unit.

Illustrative cases are given below, each with its answer.
[
  {
    "molecule": "NS(=O)(=O)c1ccc(N2N=C(c3ccc(F)cc3)CC2c2cn(-c3ccccc3)nc2-c2ccc(F)cc2)cc1 (stereo unspecified)",
    "assayed_target": "Escherichia coli",
    "MIC / µg/mL": 32
  },
  {
    "molecule": "NS(=O)(=O)c1ccc(N2N=C(c3ccccc3)CC2c2cn(-c3ccccc3)nc2-c2ccc(Br)cc2)cc1 (stereo unspecified)",
    "assayed_target": "Escherichia coli",
    "MIC / µg/mL": 32
  },
  {
    "molecule": "NS(=O)(=O)c1ccc(N2N=C(c3ccc(Br)cc3)CC2c2cn(-c3ccccc3)nc2-c2ccccc2)cc1 (stereo unspecified)",
    "assayed_target": "Escherichia coli",
    "MIC / µg/mL": 64
  },
  {
    "molecule": "NS(=O)(=O)c1ccc(N2N=C(c3ccccc3)CC2c2cn(-c3ccccc3)nc2-c2ccccc2)cc1 (stereo unspecified)",
    "assayed_target": "Escherichia coli",
    "MIC / µg/mL": 64
  },
  {
    "molecule": "Cc1ccc(C2=NN(c3ccc(S(N)(=O)=O)cc3)C(c3cn(-c4ccccc4)nc3-c3ccccc3)C2)cc1 (stereo unspecified)",
    "assayed_target": "Escherichia coli",
    "MIC / µg/mL": 64
  },
  {
    "molecule": "Cc1ccc(C2=NN(c3ccc(S(N)(=O)=O)cc3)C(c3cn(-c4ccccc4)nc3-c3ccc(C)cc3)C2)cc1 (stereo unspecified)",
    "assayed_target": "Escherichia coli",
    "MIC / µg/mL": 64
  },
  {
    "molecule": "Cc1ccc(-c2nn(-c3ccccc3)cc2C2CC(c3ccccc3)=NN2c2ccc(S(N)(=O)=O)cc2)cc1 (stereo unspecified)",
    "assayed_target": "Escherichia coli",
    "MIC / µg/mL": 64
  },
  {
    "molecule": "NS(=O)(=O)c1ccc(N2N=C(c3ccccc3)CC2c2cn(-c3ccccc3)nc2-c2ccc(F)cc2)cc1 (stereo unspecified)",
    "assayed_target": "Escherichia coli",
    "MIC / µg/mL": 32
  }
]

Ask | Name the reported MIC value associated with the molecule NS(=O)(=O)c1ccc(N2N=C(c3ccc(F)cc3)CC2c2cn(-c3ccccc3)nc2-c2ccc(Br)cc2)cc1 (stereo unspecified)
Reply | 128

Ask | Fill in: MIC of Cc1ccc(-c2nn(-c3ccccc3)cc2C2CC(c3ccc(F)cc3)=NN2c2ccc(S(N)(=O)=O)cc2)cc1 (stereo unspecified) is ___
Reply | 64

Ask | Return reported MIC; argument: NS(=O)(=O)c1ccc(N2N=C(c3ccc(F)cc3)CC2c2cn(-c3ccccc3)nc2-c2ccccc2)cc1 (stereo unspecified)
Reply | 16

Data origin: ChEMBL document CHEMBL1165861
